B1: SEC22B (parent)
chain: AKQLFRKLNEQSPTRCTLEAGAMT

Variants of: B1
Experiment: protein stability index of a GFP-peptide fusion (GPS, HEK-293T) (PSI 1-6); higher = more stable;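 further: lentivirally expressed fusions sorted by FACS into six bins by GFP to DsRed ratio, PSI derived from sequencing read proportions per bin multiplied by bin number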
Conditions: c terminus: a fixed tail appended
Exercise: for every item that follows, state its recorded protein stability index.
Respond using a number only.

Problem: Reported protein stability index, variant `E10G` : ____
Solution: 2.13

Problem: Same lookup for `T24D` , please.
Solution: 2.39

Problem: Repeat for the following variant: `R6A`
Solution: 2.14

Problem: Moving on to `K2I`
Solution: 1.43

Problem: Please give the result for `A20G` too.
Solution: 3.5

Problem: Now consider `C16S` .
Solution: 3.66

Problem: Thanks! And `R15G` ?
Solution: 3.15

Problem: Try the variant `T14N`
Solution: 1.98

Problem: Similarly, `L8I` ?
Solution: 2.1

Problem: Also, `K7Q` please.
Solution: 2.25

Problem: How about `R15V` ?
Solution: 3.01

Problem: Follow-up entry: `A1T`
Solution: 2.3

Problem: Now this one: `L8G`
Solution: 2.49

Problem: Please do the same for `R15T` as well.
Solution: 2.67

Problem: One more variant: `R6Q`
Solution: 2.67

Problem: Another variant to look at: `K2C`
Solution: 1.7

Problem: Please give the result for `L18R` too.
Solution: 2.46

Problem: Now consider `A20T` .
Solution: 2.96

Problem: Now give it for `E10T` too.
Solution: 2.31

Problem: Thanks! And `A20D` ?
Solution: 3.07

Problem: Next: `C16H`
Solution: 3.47

Problem: Next variant: `S12T`
Solution: 1.96

Problem: For `T24H` then?
Solution: 2.06

Problem: Consider next the variant `S12L` in the same way.
Solution: 2.84

Problem: Again, but for `C16I`
Solution: 3.12

Problem: Note, next up: `F5N`
Solution: 3.07

Problem: Again, but for `E19H`
Solution: 2.46

Problem: Could you do the same for `C16N` , please?
Solution: 3.74

Problem: What about this variant? `G21M`
Solution: 1.34

Problem: Follow-up item: `R15C`
Solution: 2.8

Problem: Here is the next variant: `K7V`
Solution: 2.47

Problem: And for `G21W` ?
Solution: 1.61

Problem: Similarly, `N9F` ?
Solution: 2.57

Problem: Next variant up: `P13C`
Solution: 1.53

Problem: // query: `Q3V`
Solution: 2.11

Problem: Here is the next variant: `A1K`
Solution: 2.77

Problem: Try this variant too: `S12Q`
Solution: 2.16

Problem: Follow-up item: `A22N`
Solution: 2.8
